- assay-system: menin/MLL (terbium chelate-labeled menin, FITC-MBM1 peptide) (Homo sapiens, UniProt O00255, T541A)
- Construct: Menin (a.a 1-610-6xhis tag)
- Sequence (O00255 with tags, fused parts or gaps T541A): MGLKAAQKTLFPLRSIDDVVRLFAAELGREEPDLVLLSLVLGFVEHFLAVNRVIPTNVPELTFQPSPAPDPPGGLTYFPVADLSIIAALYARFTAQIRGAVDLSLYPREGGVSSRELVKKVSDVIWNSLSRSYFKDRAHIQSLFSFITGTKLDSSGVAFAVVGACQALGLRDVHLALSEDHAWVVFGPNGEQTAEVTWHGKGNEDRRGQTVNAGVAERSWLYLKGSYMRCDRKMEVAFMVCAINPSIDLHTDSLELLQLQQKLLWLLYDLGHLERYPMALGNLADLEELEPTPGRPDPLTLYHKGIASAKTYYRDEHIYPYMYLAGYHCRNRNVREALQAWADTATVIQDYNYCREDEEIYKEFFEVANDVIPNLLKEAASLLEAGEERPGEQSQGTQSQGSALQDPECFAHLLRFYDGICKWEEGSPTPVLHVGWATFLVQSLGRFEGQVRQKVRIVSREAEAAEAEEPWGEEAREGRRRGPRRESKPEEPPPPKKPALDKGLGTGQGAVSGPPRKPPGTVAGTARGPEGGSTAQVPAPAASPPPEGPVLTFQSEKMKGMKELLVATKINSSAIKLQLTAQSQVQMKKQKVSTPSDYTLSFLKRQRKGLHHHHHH
- assay-comment: Menin/MLL homogenous time-resolved fluorescence (HTRF) assay
- condition-context: 30 min incubation
pIC50: −log10 of the molar value.
measured-metric: pIC50

Example results:
[[record]]
molecule = "CC(C)C([C@H]1C[C@H](N2CC3(COC3)C2)C1)N1CC2(CCN(c3ncnnc3Oc3ccc(F)cc3-c3cncnc3C3CC3)C2)C1 (single isomer, unassigned) [Compound 21]"
reported = 10.00

[[record]]
molecule = "CC(C)C([C@H]1C[C@@H](N2CCC(S(C)(=O)=O)CC2)C1)N1CC2(CCN(c3ncnnc3Oc3ccc(F)cc3-c3cncnc3C3CC3)C2)C1 (stereo partly shown) [Compound 132]"
reported = 9.52

[[record]]
molecule = "CC(C)[C@H]([C@H]1C[C@@H](N2CCC(S(C)(=O)=O)CC2)C1)N1CC2(CCN(c3ncnnc3Oc3ccc(F)cc3-c3ncccc3C3CC3)C2)C1 (single isomer, unassigned) [Compound 25]"
reported = 10.00

[[record]]
molecule = "CC(C)[C@H](C1CCN(C[C@H]2C[C@H](O)C2)CC1)N1CC2(CCN(c3ncnnc3Oc3ccc(F)cc3-c3cncnc3C3CC3)C2)C1 (single isomer, unassigned) [Compound 358]"
reported = 10.00

[[record]]
molecule = "Cc1ncc(-c2cc(F)ccc2Oc2nncnc2N2CCC3(C2)CN([C@@H](C(C)C)[C@H]2C[C@@H](N4CCC5(COC5)C4)C2)C3)c(C2CC2)n1 [Compound 382]"
reported = 10.10

[[record]]
molecule = "CC(=O)N[C@H]1[C@@H]2CN([C@H]3C[C@@H]([C@H](C(C)C)N4CC5(CCN(c6ncnnc6Oc6ccc(F)cc6-c6cnc(C)nc6C6CC6)C5)C4)C3)C[C@@H]21 [Compound 390]"
reported = 9.74


(A) CC(=O)N1CCC2CN([C@H]3C[C@@H]([C@@H](C(C)C)N4CC5(CCN(c6ncnnc6Oc6ccc(F)cc6-c6cncnc6C6CC6)C5)C4)C3)CC21 (single isomer, unassigned) [Compound 57]
(B) CC(C)[C@@H](C1CCN(CC2COC2)CC1)N1CC2(CCN(c3ncnnc3Oc3ccc(F)cc3-c3cncnc3C3CC3)C2)C1 (single isomer, unassigned) [Compound 29]
Would you kindly point out which of A and B has the smaller pIC50 figure? Return value: the label identifying the chosen record. B
(B: 8.74, A: 10.00)

(P) CC(C)[C@H]([C@H]1C[C@@H](N2CC[C@H](F)C2)C1)N1CC2(CCN(c3ncnnc3Oc3ccc(F)cc3-c3cncnc3C3CC3)C2)C1 (single isomer, unassigned) [Compound 238]
(Q) CC(C)[C@H]([C@H]1C[C@@H](N2CC[C@@H](O)C23CC3)C1)N1CC2(CCN(c3ncnnc3Oc3ccc(F)cc3-c3cncnc3C3CC3)C2)C1 (single isomer, unassigned) [Compound 40]
Would you kindly point out which of P and Q has the smaller pIC50 figure? Return value: the label identifying the chosen record. Q
(Q: 9.70, P: 10.00)

(A) CC(C)C([C@H]1C[C@@H](Nc2cccc(CN(C)C)n2)C1)N1CC2(CCN(c3ncnnc3Oc3ccc(F)cc3-c3cncnc3C3CC3)C2)C1 (single isomer, unassigned) [Compound 425]
(B) CC(C)[C@H]([C@H]1C[C@@H](Nc2nnc(N)s2)C1)N1CC2(CCN(c3ncnnc3Oc3ccc(F)cc3-c3cncnc3C3CC3)C2)C1 (single isomer, unassigned) [Compound 447]
(C) CC(C)[C@H]([C@H]1C[C@H](N2CCC2)C1)N1CC2(CCN(c3ncnnc3Oc3ccc(F)cc3-c3cncnc3C3CC3)C2)C1 (single isomer, unassigned) [Compound 345]
Order the records by pIC50, with each subsequent value no larger than the one before. Give the labels in the order specified. A, B, C
(A: 10.52, B: 9.82, C: 9.00)
